Kindly supply the reported MIC (µg/mL) against E. coli (ATCC 25922) values for the records listed here.
Test system: E. coli ATCC 25922
Format: cell-based, Escherichia coli
Conditions: (Supplement 2)
Where a SMILES comes first, the peptide text is derived from it. [ ]: non-standard residue; d: D form. The star is where a group is joined. ξ: configuration not given here. Octanoyl(7-Me) = CC(C)CCCCCC(=O)*; Hexanoyl(4ξ-Me) = CCC(C)CCC(=O)*; dOrn = NCCC[C@@H](N)C(=O)O; Orn = NCCC[C@H](N)C(=O)O
Give a bare numeral; the unit µg/mL is implied.

# lookup: E. coli ATCC 25922 MIC (µg/mL) against E. coli (ATCC 25922), key = CCC(C)CCC(=O)N[C@H](CC(N)=O)C(=O)N[C@H](Cc1ccc(O)cc1)C(=O)N[C@H](Cc1c[nH]c2ccccc12)C(=O)N[C@H](CCCN)C(=O)N[C@@H](CCCN)C(=O)NCC(=O)N[C@H](CCCN)C(=O)N[C@@H](Cc1c[nH]c2ccccc12)C(=O)N[C@@H](CCC(N)=O)C(=O)N[C@H](C(=O)NCC(N)=O)[C@@H](C)CC (stereo partly drawn) [Δ12LB (Gln9)-NH2 (59)] ({Hexanoyl(4ξ-Me)}-[dN][dY][dW][dOrn][Orn]G[dOrn]WQIG-NH2) 8

# lookup: E. coli ATCC 25922 MIC (µg/mL) against E. coli (ATCC 25922), key = CC[C@H](C)[C@H](NC(=O)[C@H](Cc1c[nH]c2ccccc12)NC(=O)[C@H](Cc1c[nH]c2ccccc12)NC(=O)[C@@H](CCCN)NC(=O)CNC(=O)[C@H](CCCN)NC(=O)[C@@H](CCCN)NC(=O)[C@@H](Cc1c[nH]c2ccccc12)NC(=O)[C@@H](Cc1ccc(O)cc1)NC(=O)[C@@H](CO)NC(=O)CCCCCC(C)C)C(=O)N[C@@H](CC(N)=O)C(=O)NCC(=O)NCC(N)=O [LL(Trp9)-NH2 (45)] ({Octanoyl(7-Me)}-[dS][dY][dW][dOrn][Orn]G[dOrn]WWINGG-NH2) 4

# lookup: E. coli ATCC 25922 MIC (µg/mL) against E. coli (ATCC 25922), key = CCC(C)CCC(=O)N[C@H](CC(N)=O)C(=O)N[C@H](Cc1ccc(O)cc1)C(=O)N[C@H](Cc1c[nH]c2ccccc12)C(=O)N[C@H](CCCN)C(=O)N[C@@H](CCCN)C(=O)NCC(=O)N[C@H](CCCN)C(=O)N[C@@H](Cc1c[nH]c2ccccc12)C(=O)N[C@@H](Cc1c[nH]c2ccccc12)C(=O)N[C@H](C(=O)NCC(N)=O)[C@@H](C)CC (stereo partly drawn) [Δ12LB (Trp9)-NH2 (56)] ({Hexanoyl(4ξ-Me)}-[dN][dY][dW][dOrn][Orn]G[dOrn]WWIG-NH2) 4
